Target or test system: Serine/threonine-protein kinase 10 (Homo sapiens); also: in the data inactive means no Kd found up to 30 µM
Sequence (O94804 whole entry): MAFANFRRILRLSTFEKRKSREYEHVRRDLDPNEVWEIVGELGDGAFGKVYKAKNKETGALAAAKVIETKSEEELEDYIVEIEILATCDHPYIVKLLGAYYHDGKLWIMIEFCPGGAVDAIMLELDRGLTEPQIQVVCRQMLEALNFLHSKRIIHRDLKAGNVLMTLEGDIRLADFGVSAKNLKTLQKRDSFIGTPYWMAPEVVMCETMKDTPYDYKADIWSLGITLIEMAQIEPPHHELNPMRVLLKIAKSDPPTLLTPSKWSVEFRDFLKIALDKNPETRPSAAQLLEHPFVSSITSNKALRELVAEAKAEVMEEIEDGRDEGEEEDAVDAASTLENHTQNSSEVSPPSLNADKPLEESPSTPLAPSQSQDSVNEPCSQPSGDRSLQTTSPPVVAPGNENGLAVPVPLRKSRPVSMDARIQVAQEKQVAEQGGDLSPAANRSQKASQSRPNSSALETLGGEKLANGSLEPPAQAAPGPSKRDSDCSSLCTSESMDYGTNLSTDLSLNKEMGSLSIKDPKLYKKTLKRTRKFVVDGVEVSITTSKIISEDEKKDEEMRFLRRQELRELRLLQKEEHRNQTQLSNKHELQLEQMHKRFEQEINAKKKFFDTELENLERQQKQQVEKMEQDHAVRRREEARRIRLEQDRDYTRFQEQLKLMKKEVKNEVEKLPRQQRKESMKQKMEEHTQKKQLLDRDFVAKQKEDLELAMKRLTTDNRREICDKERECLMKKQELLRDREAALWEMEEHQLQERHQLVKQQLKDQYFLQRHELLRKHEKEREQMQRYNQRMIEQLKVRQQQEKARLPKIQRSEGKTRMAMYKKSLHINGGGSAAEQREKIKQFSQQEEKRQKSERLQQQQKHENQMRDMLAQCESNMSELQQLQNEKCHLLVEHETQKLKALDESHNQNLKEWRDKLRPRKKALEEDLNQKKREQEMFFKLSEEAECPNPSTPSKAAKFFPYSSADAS
Calls of active or inactive are those of the source.
Respond using exactly one of the listed classes: T for active, F for inactive

COc1ccc(-c2ccc3ncc4c(c3c2)n(-c2ccc(N3CCNCC3)c(C(F)(F)F)c2)c(=O)n4C)cn1 [BGT-226 FREE BASE] :: F

Task item: Test call for this molecule, please: `O=c1[nH]c([C@@H]2CCCN2)nc2c1oc1ccc(Cl)cc12`
Reply: F

Task item: Follow-up entry: `CCc1nc(C(N)=O)c(Nc2ccc(N3CCC(N4CCN(C)CC4)CC3)c(OC)c2)nc1NC1CCOCC1`
Reply: T

###

Target or test system: Rho-associated protein kinase 2 (Homo sapiens, UniProt O75116); also: in the data inactive means no Kd found up to 30 µM
Sequence (O75116 whole entry): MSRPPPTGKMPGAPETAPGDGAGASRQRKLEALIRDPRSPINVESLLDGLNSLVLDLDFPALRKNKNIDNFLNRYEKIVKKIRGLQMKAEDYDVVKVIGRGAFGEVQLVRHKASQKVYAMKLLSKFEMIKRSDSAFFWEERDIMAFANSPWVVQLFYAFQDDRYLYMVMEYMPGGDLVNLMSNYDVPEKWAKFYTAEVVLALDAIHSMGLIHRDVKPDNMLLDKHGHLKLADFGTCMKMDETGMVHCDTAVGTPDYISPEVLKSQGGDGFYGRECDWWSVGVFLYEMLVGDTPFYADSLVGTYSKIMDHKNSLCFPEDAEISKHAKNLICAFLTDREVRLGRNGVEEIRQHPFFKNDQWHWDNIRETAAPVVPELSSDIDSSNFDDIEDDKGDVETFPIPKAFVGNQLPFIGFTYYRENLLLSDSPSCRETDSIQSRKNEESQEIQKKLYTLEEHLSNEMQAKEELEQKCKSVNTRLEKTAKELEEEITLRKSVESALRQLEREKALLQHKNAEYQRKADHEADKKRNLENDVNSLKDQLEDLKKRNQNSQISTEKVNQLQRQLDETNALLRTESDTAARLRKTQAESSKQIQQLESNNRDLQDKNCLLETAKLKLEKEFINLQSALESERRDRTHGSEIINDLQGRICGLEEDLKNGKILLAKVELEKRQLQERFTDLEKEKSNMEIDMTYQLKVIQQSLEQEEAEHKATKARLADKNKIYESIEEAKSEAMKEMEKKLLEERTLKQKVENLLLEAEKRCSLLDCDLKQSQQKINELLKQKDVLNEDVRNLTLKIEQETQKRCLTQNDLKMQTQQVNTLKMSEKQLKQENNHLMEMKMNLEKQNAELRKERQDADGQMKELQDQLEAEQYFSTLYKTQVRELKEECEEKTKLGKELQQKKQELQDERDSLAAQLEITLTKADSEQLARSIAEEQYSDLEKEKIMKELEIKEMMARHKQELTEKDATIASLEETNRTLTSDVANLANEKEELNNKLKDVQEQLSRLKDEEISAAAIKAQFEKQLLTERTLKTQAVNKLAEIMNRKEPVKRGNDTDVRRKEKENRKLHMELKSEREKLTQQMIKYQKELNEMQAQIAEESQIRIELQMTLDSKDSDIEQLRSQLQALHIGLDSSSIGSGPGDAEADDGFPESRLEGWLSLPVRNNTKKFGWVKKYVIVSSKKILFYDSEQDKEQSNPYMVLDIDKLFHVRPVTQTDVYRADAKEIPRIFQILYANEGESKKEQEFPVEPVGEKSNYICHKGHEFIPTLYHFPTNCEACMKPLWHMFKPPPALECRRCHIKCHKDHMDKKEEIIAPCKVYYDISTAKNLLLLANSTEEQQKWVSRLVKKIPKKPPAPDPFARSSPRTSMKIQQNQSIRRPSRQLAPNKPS
The source made the active and inactive calls.
Respond using exactly one of the listed classes: T = active, F = inactive

Take a look at these entries with their results.
CCOc1ccn(-c2ccc(F)cc2)c(=O)c1C(=O)Nc1ccc(Oc2ccnc(N)c2Cl)c(F)c1 :: F
S=C(NCc1ccc2c(c1)OCO2)N1CCN(c2ncnc3c2oc2ccccc23)CC1 :: F
Cc1cc(-c2cc(OC(=O)c3ccccc3)ccc2Cl)cc2nnc(Nc3ccc(OCCN4CCCC4)cc3)nc12 :: F

Task item: Test call for this compound, please: `COc1cc2ncnc3c2cc1OCCCCCN(C)Cc1ccc(Br)cc1N3`
Reply: F

###

Target or test system: Epithelial discoidin domain-containing receptor 1 (Homo sapiens, UniProt Q08345); also: in the data inactive means no Kd found up to 30 µM
Calls of active or inactive are those of the source.
Respond using exactly one of the listed classes: TRUE (active), FALSE (inactive)

Take a look at these entries with their results.
COc1cccc(Nc2ncnn3ccc(CN4CC[C@@H](N)[C@H](O)C4)c23)c1 :: FALSE
Cc1c(Cn2c(C)nc3c(C(=O)O)cc(N4CCOCC4)cc32)cccc1C(F)(F)F :: FALSE
COc1cccc2cc(-c3nc([C@H]4CC[C@H](C(=O)O)CC4)n4ncnc(N)c34)[nH]c12 :: FALSE
CN1CCN(c2nc(C3=C(c4c[nH]c5ccccc45)C(=O)NC3=O)c3ccccc3n2)CC1 :: FALSE
CC(C)CC(=O)Nc1[nH]nc2c1CN(C(=O)C1CCN(C)CC1)C2(C)C :: FALSE

Task item: Test call for this compound, please: COc1cc2nccc(Oc3ccc(NC(=O)C4(C(=O)Nc5ccc(F)cc5)CC4)cc3)c2cc1OC [CABOZANTINIB]
Reply: TRUE

Task item: Follow-up entry: `C#Cc1cccc(Nc2ncnc3cc4c(cc23)OCCOCCOCCO4)c1`
Reply: FALSE

###

Target or test system: BMP-2-inducible protein kinase (Homo sapiens); also: in the data inactive means no Kd found up to 30 µM
Sequence (Q9NSY1 whole entry): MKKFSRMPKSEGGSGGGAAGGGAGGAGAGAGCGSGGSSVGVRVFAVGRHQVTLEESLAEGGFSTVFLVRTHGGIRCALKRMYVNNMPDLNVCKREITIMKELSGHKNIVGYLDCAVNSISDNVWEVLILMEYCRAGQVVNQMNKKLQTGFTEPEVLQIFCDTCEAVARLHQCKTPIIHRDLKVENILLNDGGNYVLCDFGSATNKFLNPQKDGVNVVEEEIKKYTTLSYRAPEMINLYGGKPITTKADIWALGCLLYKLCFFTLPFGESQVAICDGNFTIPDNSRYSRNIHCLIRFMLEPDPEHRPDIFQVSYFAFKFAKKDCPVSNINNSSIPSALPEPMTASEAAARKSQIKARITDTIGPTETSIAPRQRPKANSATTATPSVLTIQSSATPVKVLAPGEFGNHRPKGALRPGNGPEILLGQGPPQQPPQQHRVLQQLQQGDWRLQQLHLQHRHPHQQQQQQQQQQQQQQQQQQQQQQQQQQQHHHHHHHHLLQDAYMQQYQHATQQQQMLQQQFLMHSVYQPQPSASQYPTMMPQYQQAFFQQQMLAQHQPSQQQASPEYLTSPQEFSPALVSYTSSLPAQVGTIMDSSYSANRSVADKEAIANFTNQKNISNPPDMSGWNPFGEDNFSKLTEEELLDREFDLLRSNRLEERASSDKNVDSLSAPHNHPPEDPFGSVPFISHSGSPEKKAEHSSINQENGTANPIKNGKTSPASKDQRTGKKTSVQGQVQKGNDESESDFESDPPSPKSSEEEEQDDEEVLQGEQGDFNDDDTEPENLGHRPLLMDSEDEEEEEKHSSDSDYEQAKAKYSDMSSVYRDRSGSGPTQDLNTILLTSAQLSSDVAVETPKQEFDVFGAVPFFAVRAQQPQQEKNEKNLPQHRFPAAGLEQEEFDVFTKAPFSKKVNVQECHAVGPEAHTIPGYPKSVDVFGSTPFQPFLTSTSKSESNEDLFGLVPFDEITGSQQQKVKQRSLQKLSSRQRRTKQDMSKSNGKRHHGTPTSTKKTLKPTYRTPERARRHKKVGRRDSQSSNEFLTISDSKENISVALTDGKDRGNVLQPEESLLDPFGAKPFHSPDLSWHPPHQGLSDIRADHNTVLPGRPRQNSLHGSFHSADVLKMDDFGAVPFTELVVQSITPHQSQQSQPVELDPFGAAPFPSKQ
The source made the active and inactive calls.
Respond using exactly one of the listed classes: active, inactive

Take a look at these entries with their results.
COc1cc2nccc(Oc3ccc(NC(=O)C4(C(=O)Nc5ccc(F)cc5)CC4)cc3)c2cc1OC [CABOZANTINIB] :: inactive
Cc1c(NC(=O)OC[C@@H]2COCCN2)cn2ncnc(Nc3ccc4c(cnn4Cc4cccc(F)c4)c3)c12 [AC-480] :: inactive

Task item: Test call for this compound, please: COc1cc(Nc2ncc(F)c(Nc3ccc4c(n3)N(COP(=O)(O)O)C(=O)C(C)(C)O4)n2)cc(OC)c1OC [FOSTAMATINIB]
Reply: inactive

Task item: Follow-up entry: Cn1c(=O)c(F)c(Nc2ccc(I)cc2F)c2c(=O)n(C[C@@H](O)CO)cnc21 [TAK-733]
Reply: inactive

Task item: Follow-up entry: C#Cc1cccc(Nc2ncnc3cc4c(cc23)OCCOCCOCCO4)c1 [ICOTINIB]
Reply: inactive

###

Calls of active or inactive are those of the source.
Quick note: these are Kd numbers for system: Mitogen-activated protein kinase 11 (Homo sapiens, UniProt Q15759); also: in the data inactive means no Kd found up to 30 µM
Sequence (Q15759 whole entry): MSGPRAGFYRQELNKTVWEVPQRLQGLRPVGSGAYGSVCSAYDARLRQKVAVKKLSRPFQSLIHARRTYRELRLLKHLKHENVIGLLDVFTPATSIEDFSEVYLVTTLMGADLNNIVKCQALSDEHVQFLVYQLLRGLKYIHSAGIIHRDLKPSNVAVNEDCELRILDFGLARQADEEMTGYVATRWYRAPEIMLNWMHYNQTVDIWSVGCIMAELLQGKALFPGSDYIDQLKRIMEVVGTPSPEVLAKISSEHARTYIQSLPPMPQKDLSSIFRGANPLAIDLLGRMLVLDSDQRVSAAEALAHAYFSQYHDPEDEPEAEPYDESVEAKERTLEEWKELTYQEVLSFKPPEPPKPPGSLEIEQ

Below, 5 molecules whose answers are already recorded.
COc1cccc2cc(-c3nc([C@H]4CC[C@H](C(=O)O)CC4)n4ncnc(N)c34)[nH]c12 :: > 30 µM (inactive)
CN(c1ncccc1CNc1nc(Nc2ccc3c(c2)CC(=O)N3)ncc1C(F)(F)F)S(C)(=O)=O :: > 30 µM (inactive)
CC[C@@](C)(Nc1ccnc(-c2c[nH]c3ncccc23)n1)C(=O)NCC(F)(F)F :: > 30 µM (inactive)
Cn1cc(-c2[nH]c3cc(NC(=O)[C@H](N)C4CCCCC4)cc4c3c2C=NNC4=O)cn1 :: > 30 µM (inactive)
Cc1cc(Nc2nc(N[C@@H](C)c3ncc(F)cn3)ncc2Cl)n[nH]1 :: > 30 µM (inactive)

Task item: Given `O=C(Nc1ccc(OC(F)(F)F)cc1)c1sccc1NCc1ccnc2ccccc12` , state its recorded Kd.
Reply: > 30 µM (inactive)

Task item: Follow-up entry: `COc1cc(Nc2ncc(F)c(Nc3ccc4c(n3)N(COP(=O)(O)O)C(=O)C(C)(C)O4)n2)cc(OC)c1OC`
Reply: > 30 µM (inactive)

Task item: Follow-up entry: `Cc1c(NC(=O)OC[C@@H]2COCCN2)cn2ncnc(Nc3ccc4c(cnn4Cc4cccc(F)c4)c3)c12`
Reply: > 30 µM (inactive)

###

Target or test system: UniProt Q13470
The source made the active and inactive calls.
Respond using exactly one of the listed classes: TRUE = active, FALSE = inactive

Take a look at these entries with their results.
COc1ccc(-c2ccc3ncc4c(c3c2)n(-c2ccc(N3CCNCC3)c(C(F)(F)F)c2)c(=O)n4C)cn1 [BGT-226 FREE BASE] :: FALSE
COc1cc2ncnc3c2cc1OCCCCCN(C)Cc1ccc(Br)cc1N3 :: FALSE
COc1ccc2c(OCc3nnc4ccc(-c5ccccc5)nn34)ccnc2c1 :: FALSE
CC1(COc2ccc3c(c2)ncn3-c2ccc3cccc(N4CCC(N)CC4)c3n2)COC1 :: FALSE
CCc1nc(C(N)=O)c(Nc2ccc(N3CCC(N4CCN(C)CC4)CC3)c(OC)c2)nc1NC1CCOCC1 :: TRUE
O=c1[nH]c([C@@H]2CCCN2)nc2c1oc1ccc(Cl)cc12 :: FALSE
NC(=O)c1ccc(N(C(N)=O)c2c(F)cccc2F)nc1-c1ccc(F)cc1F :: FALSE
CCc1cc2c(cc1N1CCC(N3CCOCC3)CC1)C(C)(C)c1[nH]c3cc(C#N)ccc3c1C2=O :: FALSE
C=CC(=O)Nc1cc(Nc2nccc(-c3cn(C)c4ccccc34)n2)c(OC)cc1N(C)CCN(C)C :: FALSE
COc1cc(Nc2ncc(F)c(Nc3ccc4c(n3)N(COP(=O)(O)O)C(=O)C(C)(C)O4)n2)cc(OC)c1OC :: TRUE

Kindly consider the entry below.
Task item: Test call for this compound, please: `S=C(NCc1ccc2c(c1)OCO2)N1CCN(c2ncnc3c2oc2ccccc23)CC1`
Reply: FALSE

###

Target or test system: Ribosomal protein S6 kinase beta-1 (Homo sapiens, UniProt P23443); also: in the data inactive means no Kd found up to 30 µM
Sequence (P23443 whole entry): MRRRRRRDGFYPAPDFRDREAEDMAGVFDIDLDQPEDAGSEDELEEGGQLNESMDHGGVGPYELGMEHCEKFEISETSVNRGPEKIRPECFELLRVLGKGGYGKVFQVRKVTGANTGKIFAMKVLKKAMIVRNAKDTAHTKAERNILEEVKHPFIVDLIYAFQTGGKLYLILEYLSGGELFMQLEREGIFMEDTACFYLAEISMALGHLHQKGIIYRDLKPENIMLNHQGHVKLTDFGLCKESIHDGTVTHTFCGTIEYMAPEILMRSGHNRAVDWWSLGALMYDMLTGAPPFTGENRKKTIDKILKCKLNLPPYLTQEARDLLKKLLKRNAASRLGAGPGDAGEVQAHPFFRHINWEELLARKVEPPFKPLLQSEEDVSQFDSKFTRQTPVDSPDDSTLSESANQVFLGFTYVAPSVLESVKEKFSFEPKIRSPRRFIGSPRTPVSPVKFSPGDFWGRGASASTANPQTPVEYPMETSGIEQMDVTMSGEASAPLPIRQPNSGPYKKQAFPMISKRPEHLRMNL
Active and inactive are the calls of the source.
Respond using exactly one of the listed classes: active, inactive

C[C@@H]1COC(Nc2ccc3ncnc(Nc4ccc(OCc5nccs5)c(Cl)c4)c3c2)=N1 :: inactive
CC[C@@](C)(Nc1ccnc(-c2c[nH]c3ncccc23)n1)C(=O)NCC(F)(F)F :: inactive
O=C(NC[C@H](O)CO)c1ccncc1Nc1ccc(I)cc1F :: inactive
Cc1c(NC(=O)OC[C@@H]2COCCN2)cn2ncnc(Nc3ccc4c(cnn4Cc4cccc(F)c4)c3)c12 :: inactive
Cc1c(Cn2c(C)nc3c(C(=O)O)cc(N4CCOCC4)cc32)cccc1C(F)(F)F :: inactive
C=CC(=O)Nc1cc(Nc2nccc(-c3cn(C)c4ccccc34)n2)c(OC)cc1N(C)CCN(C)C :: inactive

Task item: Test call for this compound, please: `Cn1cc(-c2[nH]c3cc(NC(=O)[C@H](N)C4CCCCC4)cc4c3c2C=NNC4=O)cn1`
Reply: active

###

Target or test system: Mitogen-activated protein kinase 9 (Homo sapiens); also: in the data inactive means no Kd found up to 30 µM
Sequence (P45984 whole entry): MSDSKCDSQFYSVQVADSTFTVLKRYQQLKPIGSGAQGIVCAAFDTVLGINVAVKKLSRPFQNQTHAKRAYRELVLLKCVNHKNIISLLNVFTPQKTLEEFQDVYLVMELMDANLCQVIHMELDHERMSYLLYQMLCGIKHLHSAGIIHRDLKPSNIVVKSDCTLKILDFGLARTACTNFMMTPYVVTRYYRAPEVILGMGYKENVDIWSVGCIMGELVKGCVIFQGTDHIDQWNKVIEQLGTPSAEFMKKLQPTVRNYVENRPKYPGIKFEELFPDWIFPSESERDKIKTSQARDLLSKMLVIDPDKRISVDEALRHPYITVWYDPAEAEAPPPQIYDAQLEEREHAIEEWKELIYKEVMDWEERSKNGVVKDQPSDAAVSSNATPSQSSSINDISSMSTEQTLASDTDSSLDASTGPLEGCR
Activity calls are given as the source filed them.
Respond using exactly one of the listed classes: true (active), false (inactive)

CC(C)CC(=O)Nc1[nH]nc2c1CN(C(=O)C1CCN(C)CC1)C2(C)C [PHA-793887] :: false
CNC(=O)c1cc(COc2nnc(Nc3ccc(Cl)cc3)c3ccoc23)ccn1 [TELATINIB] :: false
C=CC(=O)Nc1cccc(Nc2nc(Nc3ccc(N4CCN(C(C)=O)CC4)cc3OC)ncc2C(F)(F)F)c1 [ROCILETINIB] :: false

Kindly consider the entry below.
Task item: Test call for this molecule, please: COc1cc(Nc2ncc(F)c(Nc3ccc4c(n3)N(COP(=O)(O)O)C(=O)C(C)(C)O4)n2)cc(OC)c1OC [FOSTAMATINIB]
Reply: true

###

Target or test system: LIM domain kinase 1 (Homo sapiens, UniProt P53667); also: in the data inactive means no Kd found up to 30 µM
Calls of active or inactive are those of the source.
Respond using exactly one of the listed classes: Y for active, N for inactive

Take a look at these entries with their results.
Cc1ccc(C(=O)Nc2ccc(Oc3cc4cnn(C)c4cc3-c3cn[nH]c3)c(F)c2)c(=O)n1-c1ccc(F)cc1 [MERESTINIB] :: N
CN1CCN(c2nc(C3=C(c4c[nH]c5ccccc45)C(=O)NC3=O)c3ccccc3n2)CC1 [SOTRASTAURIN] :: N
COc1cc2ncnc(Nc3ccc(O)cc3)c2cc1OC [WHI-P131] :: N

Task item: Test call for this compound, please: COc1cc2nccc(Oc3ccc(NC(=O)C4(C(=O)Nc5ccc(F)cc5)CC4)cc3)c2cc1OC [CABOZANTINIB]
Reply: N

Task item: Follow-up entry: COc1ccc(-c2ccc3ncc4c(c3c2)n(-c2ccc(N3CCNCC3)c(C(F)(F)F)c2)c(=O)n4C)cn1 [BGT-226 FREE BASE]
Reply: N

Task item: Follow-up entry: NC[C@@](O)(c1ccc(Cl)cc1)c1ccc(-c2cn[nH]c2)cc1 [AT-13148]
Reply: N

Task item: Follow-up entry: COc1cc(F)c(F)c(Nc2ccc(I)cc2F)c1NS(=O)(=O)C1(C[C@H](O)CO)CC1 [REFAMETINIB]
Reply: N

Task item: Follow-up entry: COc1ccc2c(OCc3nnc4ccc(-c5ccccc5)nn34)ccnc2c1 [AMG-208]
Reply: N
